- assayedSystem: HPK1 (Homo sapiens)
- Sequence (Q92918 1-346): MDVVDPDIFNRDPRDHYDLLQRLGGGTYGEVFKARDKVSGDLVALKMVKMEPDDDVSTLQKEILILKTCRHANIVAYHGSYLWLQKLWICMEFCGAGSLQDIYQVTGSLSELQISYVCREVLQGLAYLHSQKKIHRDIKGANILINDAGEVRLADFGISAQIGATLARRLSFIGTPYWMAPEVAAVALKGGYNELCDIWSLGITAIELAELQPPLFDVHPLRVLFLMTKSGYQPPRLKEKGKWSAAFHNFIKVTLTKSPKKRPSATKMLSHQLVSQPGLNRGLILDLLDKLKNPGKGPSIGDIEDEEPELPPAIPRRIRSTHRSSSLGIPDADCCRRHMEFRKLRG
- testName: HPK1 kinase activity assay (ADP-Glo)
- conditionInfo: HPK1 Kinase activity IC50, ADP-Glo; 1 nM HPK1, 10 μM ATP, 0.1 μg/μL MBP
# pIC50 per entry
// pIC50: -log10(molar conc.)

Solved cases (2 shown):
compound	pIC50
Cc1c[nH]c2ncc(-c3cc4c(c(C5COCCN5)c3)CN(C(=O)[C@](C)(O)C(F)(F)F)CC4)cc12 (single isomer, unassigned)	7.64
CCc1c[nH]c2ncc(-c3cc4c(c([C@@H]5COCCN5)c3)CN(C(=O)C(C)(C)O)CC4)cc12	9.68

Request: Can you share its pIC50? I mean this compound: Cc1c[nH]c2ncc(-c3cc4c(c([C@@H]5CCCN5)c3)CN(C(=O)[C@H](O)c3cccnc3)CC4)cc12 (single isomer, unassigned)
Response: 9.40

Request: Consider next the compound Cc1c[nH]c2ncc(-c3cc4c(c([C@@H]5CCCN5)c3)CN(C(=O)[C@@H](O)c3cccnc3)CC4)cc12 (single isomer, unassigned) in the same way.
Response: 9.16

Request: One more compound: CC1(C)CC(O)CN1C(=O)N1CCc2cc(-c3cnc4[nH]cc(Cl)c4c3)cc([C@@H]3COCCN3)c2C1 (stereo partly drawn)
Response: 9.44

Request: Entry `Cc1c[nH]c2ncc(-c3cc4c(c([C@@H]5COCCN5)c3)CN(C(=O)N3C[C@H](C)O[C@@H](C)C3)CC4)cc12` please
Response: 9.46
